Reported Kd values follow for various binders
# TEST SYSTEM: T1, PUF4 RNA-binding domain (Saccharomyces cerevisiae, UniProt P25339 537-888)
# T1 sequence: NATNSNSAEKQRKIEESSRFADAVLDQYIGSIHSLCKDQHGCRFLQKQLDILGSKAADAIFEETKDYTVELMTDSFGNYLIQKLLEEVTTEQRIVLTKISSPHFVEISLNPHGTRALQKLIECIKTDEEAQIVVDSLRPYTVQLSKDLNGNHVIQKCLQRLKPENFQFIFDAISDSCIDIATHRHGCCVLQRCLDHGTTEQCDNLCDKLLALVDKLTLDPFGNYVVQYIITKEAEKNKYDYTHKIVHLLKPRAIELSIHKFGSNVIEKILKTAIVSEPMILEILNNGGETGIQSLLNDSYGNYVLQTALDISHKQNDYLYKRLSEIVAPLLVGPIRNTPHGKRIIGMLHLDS
# MEASUREMENT NOTES: Mg; RNA-MaP; 20 mM Na-HEPES pH 7.4, 30 mM KOAc, 0.75 mM MgCl2, 0.1% Tween-20, 5% glycerol, 0.1 mg/mL BSA, 2 mM DTT; 25 C; 0.0125-409.6 nM protein
# EXPERIMENTAL CONTEXT: tags: N-His6-TEV cleaved; C-SNAP kept, Cy3B-labelled; label: tethered on chip by stalled RNA polymerase

Past entries and their recorded results:
BINDER	Kd
UCUCUUAGUAUGUUAUCUCUU (ssRNA) [Ib_S1_P4E.1_K4.1_C4.1_H4.1_[T1A]_A4.1_[A6G]_F4.1_T4.1]	1080 nM
Ic_S4_P3E.1_K3.1_C3.1_H3.1_A3.1_[T5G]_[A6T]_F3.1_[T7A]_[A8T]_T3.1 (ssRNA) RNA: UUUGACAACUGAUCGUUCUUUCUUGUAGUAUUUCUUUCUCGAUCAGUUGUCUUU	52.9 nM
ACAAACCUUUCGUAUAUAUAACAAAC (ssRNA) [Ie_S3_P3E.2_K3.1_C3.2_H3.1_[+1TC]_A3.1_F3.1_T3.2]	927 nM
Id_ii_S2_P4E.3_K4.2_C4.2_H4.2_A4.1_F4.1_T4.2_[G10A] (ssRNA) RNA: UUUGAUUAAUAUGAUAUCGUUCUUUCUCUUAUAUAUUAAUUUCUUUCUCGAUAUCAUAUUAAUCUUU	9.82 nM
UCUCUUCCUGUAUAUUAUGUCUCUU (ssRNA) [Id_ii_S1_P4E.2_K4.1_C4.2_[T-1C]_H4.1_A4.1_F4.1_T4.2_[G10T]_[T11G]]	1.01 nM
UCUCUUUCUACACUAUAUUUCUCUU (ssRNA) [Id_iii_S1_P3E.7_K3.3_C3.3_H3.3_A3.1_F3.1_T3.2_[A10T]]	2010 nM
Id_ii_S2_P4E.2_K4.1_C4.2_[T-1G]_H4.1_A4.1_F4.1_T4.2_[G10T]_[T11C] (ssRNA) RNA: UUUGAUUAAUAUGAUAUCGUUCUUUCUCGUGUAUAUUAUCUUCUUUCUCGAUAUCAUAUUAAUCUUU	0.286 nM
UCUCUUUGUAUUAUUCCUUUAUCUCUU (ssRNA) [Ie_S1_P5E.1_K5.1_C5.1_H5.1_A5.1_[+7TTCCT]_F5.1_T5.1]	16.7 nM
UCUCUUCUUGUCUAUAUAUAUCUCUU (ssRNA) [Ie_S1_P3E.2_K3.1_C3.2_H3.1_[+2TC]_A3.1_F3.1_T3.2]	844 nM
UCUCUUCUUGUACUUAUAUAUCUCUU (ssRNA) [Ie_S1_P3E.2_K3.1_C3.2_H3.1_[+4CT]_A3.1_F3.1_T3.2]	6.52 nM

Q) Respond only with Kd recorded for UCUCUUUCUUAUAUAUAUGUCUCUU (ssRNA) [Id_iii_S1_P3E.6_K3.2_C3.3_H3.2_A3.1_F3.1_T3.2_[A10G]]
A) 755 nM

Q) Respond only with Kd recorded for Ic_S2_P4E.1_K4.1_C4.1_H4.1_A4.1_[T5C]_[T7A]_F4.1_[T8C]_T4.1 (ssRNA) RNA: UUUGAUUAAUAUGAUAUCGUUCUUUCUUGUACAACAUUCUUUCUCGAUAUCAUAUUAAUCUUU
A) 17.4 nM

Q) Respond only with Kd recorded for UCUCUUUGUACAAUCUUCUCUU (ssRNA) [Ic_S1_P5E.1_K5.1_C5.1_H5.1_A5.1_[T5C]_[T6A]_F5.1_[T9C]_[A10T]_T5.1]
A) 25.9 nM

Q) Respond only with Kd recorded for Ib_S4_P3E.1_K3.1_C3.1_H3.1_[G2A]_[A4G]_A3.1_F3.1_T3.1 (ssRNA) RNA: UUUGACAACUGAUCGUUCUUUCUUAUGUAUAUUCUUUCUCGAUCAGUUGUCUUU
A) 5.75 nM

Q) Respond only with Kd recorded for ACAAACGAUAUAUUAUUAACACAAAC (ssRNA) [Id_ii_S3_P5E.3_K5.2_C5.2_[C-2G]_[T-1A]_H5.2_A5.1_F5.1_T5.2_[T11A]_[A12C]]
A) 313 nM

Q) Respond only with Kd recorded for UCUCUUUAUAAAUUAUCUCUU (ssRNA) [Ib_S1_P4E.1_K4.1_C4.1_H4.1_[G2A]_A4.1_[T5A]_F4.1_T4.1]
A) 128 nM
